target: T1, non-activatable Factor X (FXn) (Homo sapiens (Human), UniProt P00742 41-488, single biotin on the C-terminal BioTag); assay: BLI; class meaning: paragraph 285
T1 construct: also called BIIB-FX-015
REPORTED PROPERTY: binding result

BIIB-12-911 (antibody, V domains shown, IgG) VH: QVQLVESGGGVVQPGRSLRLSCAASGFTFSSYGMHWVRQAPGKGLEWVAVISYDGSNKYYADSVKGRFTISRDNSKNTLYLQMNSLRAEDTAVYYCARGRGMDVWGQGTTVTVSS VL: EIVLTQSPATLSLSPGERATLSCRASQSVSSYLAWYQQKPGQAPRLLIYDASNRATGIPARFSGSGSGTDFTLTISSLEPEDFAVYYCQQRSNFPITFGGGTKVEIK | binds
BIIB-12-1294 (antibody, V domains shown, IgG) VH: QVQLVQSGAEVKKPGASVKVSCKASGYTFTSYYMHWVRQAPGQGLEWMGIINPSGGSTSYAQKFQGRVTMTRDTSTSTVYMELSSLRSEDTAVYYCARGTRSSRDMDVWGQGTTVTVSS VL: DIQMTQSPSTLSASVGDRVTITCRASQSISSWLAWYQQKPGKAPKLLIYKASSLESGVPSRFSGSGSGTEFTLTISSLQPDDFATYYCQQVNTFPFTFGGGTKVEIK | binds
BIIB-12-901 (antibody, V domains shown, IgG) VH: QVQLVQSGAEVKKPGASVKVSCKASGYTFTSYYMSWVRQAPGQGLEWMGIINPSGGSTSYAQKFQGRVTMTRDTSTSTVYMELSSLRSEDTAVYYCARSRPRRPSPYGMDVWGQGTTVTVSS VL: EIVLTQSPATLSLSPGERATLSCRASQSVSSYLAWYQQKPGQAPRLLIYDASNRATGIPARFSGSGSGTDFTLTISSLEPEDFAVYYCQQSANFPFTFGGGTKVEIK | binds
